Every entry's value here was drawn from ChEMBL document CHEMBL1124386.

Assay: partition coefficient at 25 degree Celsius in octanol/aqueous buffer at pH 6.02
Assay type: physicochemical
PROPERTY: logD
One number for each entry.

Q: Return logD (reported value) for this compound: N[C@@H](Cc1cc(Br)c(Oc2ccc(O)c(Cc3ccc(O)nc3)c2)c(Br)c1)C(=O)O
Result: 0.7

* * *

Experiment: Selectivity, ratio between relative ID50 in liver and heart
Give Ratio for every item shown.
Give bare numbers.

N#Cc1ccc(Cc2cc(Oc3c(I)cc(C[C@H](N)C(=O)O)cc3I)ccc2O)cc1 : 27.7
Cn1cc(Cc2cc(Oc3c(I)cc(C[C@H](N)C(=O)O)cc3I)ccc2O)ccc1=O : 74.1

Field: next compound
Q: Quick one: give measured Ratio for N[C@@H](Cc1cc(I)c(Oc2ccc(O)c(Cc3ccnc(O)c3)c2)c(I)c1)C(=O)O
Result: 20

* * *

Give Relative ED50 for every item shown.
Tested on: Rattus norvegicus
Test: Potency for induction of GPDH (mitochondrial cytochrome C3-phosphoglycerate oxidoreductase) was measured 48 hours after single intramuscular injection relative to T3 in heart
Assay type: functional
Answers are plain numbers.

Solved entries (count: 3):
N[C@@H](Cc1cc(I)c(Oc2ccc(O)c(Cc3ccccc3)c2)c(I)c1)C(=O)O : 0.5
N[C@@H](Cc1cc(I)c(Oc2ccc(O)c(Cc3ccc(F)cc3)c2)c(I)c1)C(=O)O : 3.7
N[C@@H](Cc1cc(I)c(Oc2ccc(O)c(Cc3ccc([N+](=O)[O-])cc3)c2)c(I)c1)C(=O)O : 0.9

Continue with the next molecule.
Q: Give the measured Relative ED50 for O=C(O)CCc1cc(Br)c(Oc2ccc(O)c(Cc3ccc(O)nc3)c2)c(Br)c1
Result: 0.04

* * *

Test: Binding affinity to the thyroid hormone receptor was determined in vitro in isolated nuclei of rat liver relative to 3,5,3' triiodothyronine
Type: tissue-based
So I've got a bunch of compounds here, and I need their Relative IC50 values.

N[C@@H](Cc1cc(I)c(Oc2ccc(O)c(Cc3ccc(O)cc3)c2)c(I)c1)C(=O)O : 17
N[C@@H](Cc1cc(I)c(Oc2ccc(O)c(Cc3ccc(O)c(Cl)c3)c2)c(I)c1)C(=O)O : 5.9
N[C@@H](Cc1cc(I)c(Oc2ccc(O)c(Cc3ccccc3O)c2)c(I)c1)C(=O)O : 0.81
N[C@@H](Cc1cc(Cl)c(Oc2ccc(O)c(Cc3ccc(O)nn3)c2)c(Cl)c1)C(=O)O : 0.48
N[C@@H](Cc1cc(Br)c(Oc2ccc(O)c(Cc3ccc(O)nc3)c2)c(Br)c1)C(=O)O : 2

Please report Relative IC50 for every entry that follows.
1. Cc1cc(O)c(Cc2ccc(O)nc2)cc1Oc1c(I)cc(C[C@H](N)C(=O)O)cc1I
2. N[C@@H](Cc1cc(Cl)c(Oc2ccc(O)c(Cc3ccc(O)nc3)c2)c(Cl)c1)C(=O)O
3. N[C@H](Cc1cc(I)c(Oc2ccc(O)c(Cc3ccc(O)nc3)c2)c(I)c1)C(=O)O
4. O=C(O)CCCc1cc(Br)c(Oc2ccc(O)c(Cc3ccc(O)nc3)c2)c(Br)c1
5. N[C@@H](Cc1cc(I)c(Oc2ccc(O)c(Cc3ccccc3)c2)c(I)c1)C(=O)O

Result:
1. 0.028
2. 0.49
3. 1.1
4. 21.7
5. 15

* * *

Task for the reader: assign each of the following compounds its reported Relative IC50.
Molecular target: Thyroid hormone receptor beta (Rattus norvegicus) (UniProt P18113)
Sequence (whole entry): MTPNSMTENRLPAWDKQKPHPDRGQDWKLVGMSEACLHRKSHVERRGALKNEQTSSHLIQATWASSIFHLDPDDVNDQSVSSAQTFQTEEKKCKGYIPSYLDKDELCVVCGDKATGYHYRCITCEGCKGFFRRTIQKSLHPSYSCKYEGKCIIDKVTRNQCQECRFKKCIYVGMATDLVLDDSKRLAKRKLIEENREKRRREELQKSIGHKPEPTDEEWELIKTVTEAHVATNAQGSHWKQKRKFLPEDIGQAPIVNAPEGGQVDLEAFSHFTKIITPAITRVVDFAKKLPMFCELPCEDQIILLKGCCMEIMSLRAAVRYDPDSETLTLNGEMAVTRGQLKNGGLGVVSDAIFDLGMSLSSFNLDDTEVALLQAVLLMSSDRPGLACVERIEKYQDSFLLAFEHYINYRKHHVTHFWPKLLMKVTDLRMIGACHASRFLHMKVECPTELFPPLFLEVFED
Experiment: Binding affinity to the receptor was determined in vitro in isolated nuclei of rat liver relative to T3
Format: tissue-based
One number for each entry.

These recorded examples may help you get a feel for the data.
Cc1cc(CC(N)C(=O)O)cc(C)c1Oc1ccc(O)c(Cc2ccc(O)nc2)c1 (centres undefined) : 0.083
N[C@@H](Cc1cc(I)c(Oc2ccc(O)c(Cc3cnc(O)nc3)c2)c(I)c1)C(=O)O : 0.15

Below are some compounds; for each one, tell me its Relative IC50.
1. N[C@@H](Cc1cc(I)c(Oc2ccc(O)c(Cc3ccnc(O)c3)c2)c(I)c1)C(=O)O
2. O=C(O)CCc1cc(Br)c(Oc2ccc(O)c(Cc3ccc(O)nc3)c2)c(Br)c1

Result:
0.042
31.6
